Assay: BSK_hDFCGF_SRB: Viability Assessment in the BioMAP Diversity Plus: hDFCGF Assay (AID 2283061);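 note: cells exposed to compound for 24 h before the read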
Settings: primary human foreskin fibroblasts
Calls of active or inactive are those of the source. Rule for the calls: active = hit-call score of the fitted dose curve at least 0.9, where 1 is the maximum; inactive = score below 0.9.
// one of 1 = active, 0 = inactive, no free text

// below: answered compounds
Q: In this assay, the call recorded for CCN(CC)C(=O)c1cccc(C)c1 was what?
A: 0

Q: In this assay, the call recorded for O=C(c1ccccc1)C1CCCCC1 was what?
A: 0

Q: In this assay, the call recorded for CCCCOC(=O)C(C)Oc1ccc(Oc2ccc(C(F)(F)F)cn2)cc1 (configuration not stated) was what?
A: 0

---
Q: In this assay, the call recorded for CCCCC(CC)CN1C(=O)C2C3C=CC(C3)C2C1=O (configuration not stated) was what?
A: 0

Q: In this assay, the call recorded for CCCCCOC(=O)COc1cc(N2C(=O)C3=C(CCCC3)C2=O)c(F)cc1Cl was what?
A: 0

Q: In this assay, the call recorded for CC(C)(c1ccc(O)cc1)c1ccc(O)cc1 was what?
A: 0

Q: In this assay, the call recorded for Oc1ccc(C(c2ccc(O)cc2)C(Cl)(Cl)Cl)cc1 was what?
A: 1

---

Biological target: Cellular tumor antigen p53 (Homo sapiens)
Test: ATG_p53_CIS: Attagene CIS-FACTORIAL HepG2 Assay for human p53 Transcription Factor (AID 2282994)
Conditions: HepG2 p53 cis-element reporter, Attagene mRNA; actives raise or lower the signal
Activity calls are given as the source filed them. How the source made its calls: active means hit-call score of the fitted dose curve at least 0.9, where 1 is the maximum; inactive means score below 0.9.
reportedEndpoint: outcome

// below: answered compounds
Form field outcome, entry Cc1nn(C)c(Oc2ccccc2)c1C=NOCc1ccc(C(=O)OC(C)(C)C)cc1 : inactive

Form field outcome, entry CCNc1nc(N)nc(Cl)n1 : inactive

Form field outcome, entry CCSC(=O)N(CC(C)C)CC(C)C : inactive

Form field outcome, entry COc1nc(C)nc(NC(=O)NS(=O)(=O)c2ccccc2OCCCl)n1 : inactive

Form field outcome, entry COC(=O)c1ccccc1C(=O)O : inactive

---
Form field outcome, entry CCCCCCC(C)OC(=O)COc1nc(F)c(Cl)c(N)c1Cl (configuration not stated) : inactive

Form field outcome, entry c1ccc(Nc2ccccc2)cc1 : inactive

---

Test: Tanguay_ZF_120hpf_CFIN_legacy: (Legacy) Oregon State University Tanguay Lab 120 Hour Post-fertilization zebrafish Assay for Caudal Fin Malformation (AID 2283649)
Results filed as inconclusive are left out. Active and inactive are the calls of the source. The calls were made as follows: active = hit-call score of the fitted dose curve at least 0.9, where 1 is the maximum; inconclusive = response in the unintended direction; inactive = score below 0.9.
// one of active, inactive, no free text

// below: answered molecules
Q: In this assay, the call recorded for CCCOC(=O)NCCCN(C)C was what?
A: inactive

Q: In this assay, the call recorded for Oc1ccc(C(c2ccc(O)cc2)C(Cl)(Cl)Cl)cc1 was what?
A: inactive

Q: In this assay, the call recorded for CSC(=O)c1cccc2nnsc12 was what?
A: inactive

Q: In this assay, the call recorded for CCN(Cc1c(F)cccc1Cl)c1c([N+](=O)[O-])cc(C(F)(F)F)cc1[N+](=O)[O-] was what?
A: inactive

Q: In this assay, the call recorded for CC(C)CCCCCCc1ccc(O)cc1 was what?
A: inactive

---
Q: In this assay, the call recorded for CCOC(=O)COc1cc(-n2ncc(C(F)(F)F)c(C)c2=O)c(F)cc1Cl was what?
A: inactive

Q: In this assay, the call recorded for COCCO was what?
A: inactive

Q: In this assay, the call recorded for CCCCOCCOCCOCc1cc2c(cc1CCC)OCO2 was what?
A: active

Q: In this assay, the call recorded for CCCCC(CC)CN1C(=O)C2C3C=CC(C3)C2C1=O (stereo unspecified) was what?
A: inactive

Q: In this assay, the call recorded for COC(=O)c1ccccc1C(=O)O was what?
A: inactive
